# ASSAYED_TARGET: T1, Human hepcidin peptide (hepcidin-25) (human)
# T1 construct: Synthetic 25 aa peptide; also called hep-25; Hep-25
# T1 peptide: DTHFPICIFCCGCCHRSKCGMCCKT
# EXPERIMENT_DESCRIPTION: titration affinity ELISA, hepcidin 100 ng/well on Nunc Immobilizer Amino plate, CHO supernatant; antibody 6.25 ng/ml
READOUT_LABEL: OD 450 nm (OD450)
API: value field is a number in OD450; no unit string.

BAP070-hum03 (antibody, IgG1, V domains shown, Expressed as soluble IgG1 in CHO cells, tested as supernatant; The entries stop inside FR4) VH: QVQLVQSGAEVKKPGASVKVSCKASGYTFTNYGMNWVRQATGQGLEWMGWINTYTGEPTYADDFKGRFVFSLDTSVSTAYLQICSLKAEDTAVYYCTTYATSWYWGQG VL: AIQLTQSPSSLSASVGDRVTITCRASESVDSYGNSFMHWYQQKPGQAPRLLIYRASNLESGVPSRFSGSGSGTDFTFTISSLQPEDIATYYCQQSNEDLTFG ... 1.6
BAP070-01 (human-mouse chimeric MAb 583) (antibody, human IgG1, kappa, V domains shown, used as CHO cell supernatant; also called BAP070-1) VH: QIQLVQSGPELKKPGETVKISCKASGYTFTNYGMNWVKQAPGKGLKWMGWINTYTGEPTYADDFKGRFAFSLETSASTAYLQINNLKNEDTATYFCTTYATSWYWGQGTLVTVSS VL: DIVLTQSPASLAVSLGQRATISCRASESVDSYGNSFMHWYQQKPGQPPKLLIYRASNLESGIPARFSGSGSRTDFTLTINPVEADDVATYYCQQSNEDLTFGQGTKVEIKR ... 1.32
BAP070-hum04 (antibody, V domains shown, Expressed as soluble IgG1 in CHO cells, tested as supernatant; The entries stop inside FR4) VH: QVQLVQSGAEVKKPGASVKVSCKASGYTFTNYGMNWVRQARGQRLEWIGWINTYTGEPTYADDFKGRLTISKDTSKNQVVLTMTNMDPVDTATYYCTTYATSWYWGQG VL: AIQLTQSPSSLSASVGDRVTITCRASESVDSYGNSFMHWFQQRPGQSPRRLIYRASNLESGIPPRFSGSGYGTDFTLTINNIESEDAAYYFCQQSNEDLTFG ... 2

Query binder follows.
Input line: I am curious: what OD 450 nm value has been reported for BAP070-hum05 (antibody, IgG1, V domains shown, Expressed as soluble IgG1 in CHO cells, tested as supernatant; The entries stop inside FR4) VH: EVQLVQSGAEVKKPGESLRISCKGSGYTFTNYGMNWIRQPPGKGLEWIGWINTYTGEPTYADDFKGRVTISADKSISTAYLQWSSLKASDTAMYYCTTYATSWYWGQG VL: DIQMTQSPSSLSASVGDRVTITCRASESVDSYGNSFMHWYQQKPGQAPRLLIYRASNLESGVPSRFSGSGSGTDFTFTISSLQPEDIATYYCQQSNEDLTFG ?
Output line: 1.48
